Test system: hiPSC-CMs (iCell-Cardiomyocytes^2)
Experiment: MEA impedance (cytotoxicity readout) in hiPSC-CMs
Conditions: 0.3 µM, 96h
Measurement Name: Imp (impedance), % change from baseline (%)
Give bare numbers, in %.

Here are 2 compounds together with their reported answers.
compound=COc1cc2c(Nc3ccc(Br)cc3F)ncnc2cc1OCC1CCN(C)CC1 measurement_name="Imp (impedance), % change from baseline" reported_value=-6
compound="COc1nc(N)nc2c1ncn2[C@@H]1O[C@H](COP(=O)(N[C@@H](C)C(=O)OCC(C)(C)C)Oc2cccc3ccccc23)[C@@H](O)[C@@]1(C)O (stereo partly drawn)" measurement_name="Imp (impedance), % change from baseline" reported_value=-18

Could you now look at the following compound, please?
Prompt: What measured Imp (impedance), % change from baseline is associated with "CC(C)(Sc1cc(C(C)(C)C)c(O)c(C(C)(C)C)c1)Sc1cc(C(C)(C)C)c(O)c(C(C)(C)C)c1" on hiPSC-CMs (iCell-Cardiomyocytes^2)?
Response: -3

###

Test system: hiPSC-CMs (iCell-Cardiomyocytes^2)
Conditions: 0.3 µM, 48h
Measurement Name: Cessation of beating, number of observations/total well numbers

compound="COc1cccc2c1C(=O)c1c(O)c3c(c(O)c1C2=O)C[C@@](O)(C(=O)CO)C[C@@H]3O[C@H]1C[C@H](N)[C@H](O)[C@H](C)O1 [Doxorubicin]" reported_value=2/5
compound="CC(C)(Sc1cc(C(C)(C)C)c(O)c(C(C)(C)C)c1)Sc1cc(C(C)(C)C)c(O)c(C(C)(C)C)c1 [Probucol]" reported_value=0/5
compound="COc1cc2c(Nc3ccc(Br)cc3F)ncnc2cc1OCC1CCN(C)CC1 [Vandetanib]" reported_value=0/5
compound="C#Cc1cccc(Nc2ncnc3cc(OCCOC)c(OCCOC)cc23)c1 [Erlotinib]" reported_value=0/5

Could you now look at the following compound, please?
Prompt: Would you kindly share the measured Cessation of beating, number of observations/total well numbers for N=C(N)c1ccc(OCCCCCOc2ccc(C(=N)N)cc2)cc1 [Pentamidine] ?
Response: 0/5

###

Please provide measured Flat T-wave-like, number of observations/total well numbers for the entries that follow.
Test system: hiPSC-CMs (iCell-Cardiomyocytes^2)
Settings: 1 µM, 2h

Here are 2 molecules together with their reported answers.
chemical_string=COc1cc2c(Nc3ccc(Br)cc3F)ncnc2cc1OCC1CCN(C)CC1 reported_value=4/5
chemical_string=Cc1cn(-c2cc(NC(=O)c3ccc(C)c(Nc4nccc(-c5cccnc5)n4)c3)cc(C(F)(F)F)c2)cn1 reported_value=0/5

Could you now look at the following molecule, please?
Prompt: What measured Flat T-wave-like, number of observations/total well numbers is associated with "COc1cccc2c1C(=O)c1c(O)c3c(c(O)c1C2=O)C[C@@](O)(C(=O)CO)C[C@@H]3O[C@H]1C[C@H](N)[C@H](O)[C@H](C)O1" on hiPSC-CMs (iCell-Cardiomyocytes^2)?
Response: 0/5

###

System: hiPSC-CMs (iCell-Cardiomyocytes^2)
Assay: MEA impedance (cytotoxicity readout) in hiPSC-CMs
Conditions: 0.1 µM, 72h
Description: Cells were seeded according to the instructions of the cell provider, in fibronectin-coated 48-well MEA plates (Axion Cytoview Plates, M768-tMEA-48B) at a density suited to form a monolayer (i.e., 50 K/well) and maintained in culture in a stage incubator (37°C, 5% CO2). At least 4 h before the beginning of the baseline measurements, a full medium exchange was performed (to a final volume of 400 µL per well). […]
Please provide measured Imp (impedance), % change from baseline for the entries that follow.
Give bare numbers, in %.

Quick batch: Imp (impedance), % change from baseline for everything below.
1. O=C(O)COCCN1CCN(C(c2ccccc2)c2ccc(Cl)cc2)CC1 (stereo not drawn)
2. CCN(CC)CCNC(=O)c1c(C)[nH]c(/C=C2\C(=O)Nc3ccc(F)cc32)c1C
3. COc1cccc2c1C(=O)c1c(O)c3c(c(O)c1C2=O)C[C@@](O)(C(=O)CO)C[C@@H]3O[C@H]1C[C@H](N)[C@H](O)[C@H](C)O1

Response:
1. -7
2. -5
3. -27

###

Tested on: hiPSC-CMs (iCell-Cardiomyocytes^2)
Conditions: 3 µM; 24h
Measurement Name: BR (beating rate), % change from baseline (%)
One number for each entry, in %.

Here are 3 molecules together with their reported answers.
molecule=CC1(C)S[C@@H]2[C@H](NC(=O)[C@H](N)c3ccc(O)cc3)C(=O)N2[C@H]1C(=O)O measurement_unit=% reported_value=16
molecule=COc1cc2c(Nc3ccc(Br)cc3F)ncnc2cc1OCC1CCN(C)CC1 measurement_unit=% reported_value=-71
molecule="COc1nc(N)nc2c1ncn2[C@@H]1O[C@H](COP(=O)(N[C@@H](C)C(=O)OCC(C)(C)C)Oc2cccc3ccccc23)[C@@H](O)[C@@]1(C)O (stereo partly drawn)" measurement_unit=% reported_value=20

Quick batch: BR (beating rate), % change from baseline for everything below.
1. N=C(N)c1ccc(OCCCCCOc2ccc(C(=N)N)cc2)cc1
2. CC(=O)Oc1ccccc1C(=O)O
3. C[C@H](CS)C(=O)N1CCC[C@H]1C(=O)O

Response:
-18
1
1

###

Please provide measured FPDc (field-potential duration corrected by beat-rate), % change from baseline for the entries that follow.
Test system: hiPSC-CMs (iCell-Cardiomyocytes^2)
Details: 0.3 µM, 48h
Express the reported value numerically, then name its unit.

Here are 2 compounds together with their reported answers.
compound="COc1nc(N)nc2c1ncn2[C@@H]1O[C@H](COP(=O)(N[C@@H](C)C(=O)OCC(C)(C)C)Oc2cccc3ccccc23)[C@@H](O)[C@@]1(C)O (stereo partly shown)" reported_value=-8.4±4.1%
compound=Cc1cn(-c2cc(NC(=O)c3ccc(C)c(Nc4nccc(-c5cccnc5)n4)c3)cc(C(F)(F)F)c2)cn1 reported_value="39.9±14.5 %"

Quick batch: FPDc (field-potential duration corrected by beat-rate), % change from baseline for everything below.
1. CC(C)(Sc1cc(C(C)(C)C)c(O)c(C(C)(C)C)c1)Sc1cc(C(C)(C)C)c(O)c(C(C)(C)C)c1
2. N=C(N)c1ccc(OCCCCCOc2ccc(C(=N)N)cc2)cc1

Response:
4.5±4.4%
4.1±2%

###

Please provide measured Flat T-wave-like, number of observations/total well numbers for the entries that follow.
Tested on: hiPSC-CMs (iCell-Cardiomyocytes^2)
Conditions: 0.3 µM, 72h

Here are 2 compounds together with their reported answers.
chemical_string=COc1cccc2c1C(=O)c1c(O)c3c(c(O)c1C2=O)C[C@@](O)(C(=O)CO)C[C@@H]3O[C@H]1C[C@H](N)[C@H](O)[C@H](C)O1 reported_value=1/5
chemical_string=Cc1cn(-c2cc(NC(=O)c3ccc(C)c(Nc4nccc(-c5cccnc5)n4)c3)cc(C(F)(F)F)c2)cn1 reported_value=0/5

Could you now look at the following compound, please?
Prompt: Would you kindly share the measured Flat T-wave-like, number of observations/total well numbers for "CC(C)(Sc1cc(C(C)(C)C)c(O)c(C(C)(C)C)c1)Sc1cc(C(C)(C)C)c(O)c(C(C)(C)C)c1" ?
Response: 0/5
